# Organism: Rattus norvegicus
# Experiment Description: Open TG-GATES - Regimen: Daily Repeat
# Assay type: toxicity, organism-based, Sprague-Dawley
# Design: regimen Daily Repeat, gender Male, age 6 weeks
# Experimental Conditions: in vivo, po, 300 mg/kg, […], tissue Blood, route gavage, dose level Middle, time 14 day

# Molecule, WBC
measured = [
    ("CC(S)C(=O)NCC(=O)O (centres undefined) [TIOPRONIN]", "142 x10_2/uL"),
    ("CC(=O)[C@@]1(O)CC[C@H]2[C@@H]3C=C(Cl)C4=CC(=O)CC[C@]4(C)[C@H]3CC[C@@]21C [CHLORMADINONE]", "84.6 x10_2/uL"),
    ("CCCCNC(=O)NS(=O)(=O)c1ccc(C)cc1 [TOLBUTAMIDE]", "98.4 x10_2/uL"),
    ("O=C(O)c1ccccc1Nc1ccccc1 [FENAMIC ACID]", "104.7 x10_2/uL"),
]
